Target: ERα (Homo sapiens, UniProt P03372)
Sequence (P03372 whole entry): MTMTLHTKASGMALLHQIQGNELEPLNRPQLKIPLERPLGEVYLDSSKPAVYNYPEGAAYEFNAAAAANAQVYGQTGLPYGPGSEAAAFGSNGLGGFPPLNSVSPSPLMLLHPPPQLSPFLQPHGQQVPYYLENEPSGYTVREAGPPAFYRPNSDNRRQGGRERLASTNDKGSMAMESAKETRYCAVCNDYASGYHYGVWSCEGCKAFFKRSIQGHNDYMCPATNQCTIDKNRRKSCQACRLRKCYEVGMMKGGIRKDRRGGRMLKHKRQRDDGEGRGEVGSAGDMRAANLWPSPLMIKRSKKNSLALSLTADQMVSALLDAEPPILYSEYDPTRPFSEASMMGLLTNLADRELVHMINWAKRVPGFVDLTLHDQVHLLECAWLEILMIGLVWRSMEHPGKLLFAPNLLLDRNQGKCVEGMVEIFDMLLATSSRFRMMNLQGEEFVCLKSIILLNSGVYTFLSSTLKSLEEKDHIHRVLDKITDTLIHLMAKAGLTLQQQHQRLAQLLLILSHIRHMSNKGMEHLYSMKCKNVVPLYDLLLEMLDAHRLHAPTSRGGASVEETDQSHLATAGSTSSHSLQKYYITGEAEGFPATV
Assay: Degradation of ERα in T-47D cells (immunoblotting, 4 h)
Type: cell-based
Design: host or cells: T-47D
Details: 10nM compound
measured.endpoint: Degradation rate (%) of ERα in T-47D cells
Quick reminder: number only, in %, skip the unit.

[[record]]
compound = "O=C1CCC(N2Cc3cc4c(cc3C2=O)OC2(CC4)CN(C3CC4(CCC5(CC4)CN(c4ccc([C@@H]6c7ccc(O)cc7CC[C@@H]6c6ccccc6)cc4)C5)C3)C2)C(=O)N1 (stereo partly drawn) [H26]"
measured_result = 2


Query: Output measured Degradation rate (%) of ERα in T-47D cells for this item: O=C1CCC(N2Cc3c(ccc4c3OCC43CCN(CC(=O)N4CCC5(CC4)CN(c4ccc([C@@H]6c7ccc(O)cc7CC[C@@H]6c6ccccc6)cc4)C5)CC3)C2=O)C(=O)N1 (stereo partly drawn) [B22]
Response: 83

Query: # return recorded Degradation rate (%) of ERα in T-47D cells for input O=C1CCC(N2Cc3cc4c(cc3C2=O)OC2(CC4)CN(C(=O)C3CCN(c4ccc([C@@H]5c6ccc(O)cc6CC[C@@H]5c5ccccc5)cc4)CC3)C2)C(=O)N1 (stereo partly drawn) [A51]
Response: 3

###

Molecular target: ERα (Homo sapiens, UniProt P03372)
Assay: Degradation of ERα in MCF-7 cells (immunoblotting, 4 h)
Type: cell-based
Settings: 10nM compound
Quick rule for you: Degradation rate (%) of ERα in MCF-7 cells under 40% gets 1, anything else gets 0.

[[record]]
compound = "CN(C(=O)CN1CCC2(CC1)COc1c2ccc2c1CN(C1CCC(=O)NC1=O)C2=O)C1CCN(c2ccc([C@@H]3c4ccc(O)cc4CC[C@@H]3c3ccccc3)cc2)CC1 (some centres unmarked)"
label_value = 1

[[record]]
compound = "C[C@@H]1Cc2cc(O)ccc2C(c2c(F)cc(N3CCN(C[C@H]4CC[C@H](C(=O)N5CCC6(CC5)COc5c6ccc6c5CN(C5CCC(=O)NC5=O)C6=O)CC4)CC3)cc2F)N1CC(F)F (some centres unmarked)"
label_value = 0

[[record]]
compound = "CC1CN(C(=O)C2CCN(c3ccc(C4c5ccc(O)cc5CCC4c4ccccc4)cc3)CC2)CCC1N1CCC2(CC1)COc1c2ccc2c1CN(C1CCC(=O)NC1=O)C2=O (centres unmarked)"
label_value = 0


Continue with the next compound.
Query: Hello, is Degradation rate (%) of ERα in MCF-7 cells of the following compound strictly smaller than 40%? O=C1CCC(N2Cc3cc4c(cc3C2=O)CCC2(CN(C3CCN(C(=O)c5ccc([C@@H]6c7ccc(O)cc7CC[C@@H]6c6ccccc6)cc5)CC3)C2)O4)C(=O)N1 (some centres unmarked)
Response: 1

###

Target: UniProt P03372
Assay: Degradation of ERα in T-47D cells (immunoblotting, 4 h)
Format: cell-based
Design: host or cells: T-47D
Details: 10nM compound
Recorded measurements of Degradation rate (%) of ERα in T-47D cells, one per entry
Numbers only here, please. The scale is %.

Query: Note Degradation rate (%) of ERα in T-47D cells for the compound shown: O=C1CCC(N2Cc3c(ccc4c3OCC43CCN(C(=O)C4CCN(CC5CCN(c6ccc([C@@H]7c8ccc(O)cc8CC[C@@H]7c7ccccc7)cc6)CC5)CC4)CC3)C2=O)C(=O)N1 (stereo partly shown) [K34]
Response: 86

###

Test system: T-47D cells
Experiment: Inhibition of cell proliferation in T-47D cells (CCK-8, 6 days)
Type: cell-based
Conditions: 6 days of treatment, Table 3
# maps each entry to its log10 of IC50
Please note: log10 values; quantity IC50; unit nM.

[[record]]
compound = "O=C1CCC(N2Cc3c(ccc4c3OCC43CCN(CCN4CCC5(CCN(c6ccc([C@@H]7c8ccc(O)cc8CC[C@@H]7c7ccccc7)cc6)CC5)C4)CC3)C2=O)C(=O)N1 (some centres unmarked) [N4]"
tgt = "T-47D cells"
measured_endpoint = "log10 of IC50"
measured_result = 0.48

[[record]]
compound = "O=C1CCC(N2Cc3c(ccc4c3OCC43CCN(C(=O)c4ccc(CN5CCN(c6ccc([C@@H]7c8ccc(O)cc8CC[C@@H]7c7ccccc7)cc6)CC5)nc4)CC3)C2=O)C(=O)N1 (some centres unmarked) [B47]"
tgt = "T-47D cells"
measured_endpoint = "log10 of IC50"
measured_result = 0.11

[[record]]
compound = "CC1CC(N2CCC3(CC2)COc2c3ccc3c2CN(C2CCC(=O)NC2=O)C3=O)CCN1C1CCN(c2ccc(C3c4ccc(O)cc4CCC3c3ccccc3)cc2)CC1 (centres unmarked) [K22]"
tgt = "T-47D cells"
measured_endpoint = "log10 of IC50"
measured_result = 0.93


Query: Check T-47D cells data and give log10 of IC50 for O=C1CCC(N2Cc3c(ccc4c3OCC43CCN(C[C@H]4CC[C@H](C#Cc5ccc([C@@H]6c7ccc(O)cc7CC[C@@H]6c6ccccc6)cc5)CC4)CC3)C2=O)C(=O)N1 (some centres unmarked) [A115] .
Response: 1.04

Query: Please indicate recorded log10 of IC50 of O=C1CCC(N2Cc3c(ccc4c3OCC43CCN(C4CCN(C5CCN(c6ccc([C@@H]7c8ccc(O)cc8CC[C@@H]7c7ccccc7)cc6)CC5)CC4F)CC3)C2=O)C(=O)N1 (some centres unmarked) [H34] measured with T-47D cells.
Response: 0.12

Query: Give reported log10 of IC50 for O=C1CCC(N2Cc3c(ccc4c3OCC43CCN(C(=O)CN4CC5(CCN(c6ccc([C@@H]7c8ccc(O)cc8CC[C@@H]7c7ccccc7)cc6)CC5)C4)CC3)C2=O)C(=O)N1 (some centres unmarked) [K8] (T-47D cells)
Response: 0.32

Query: Lab note: T-47D cells assay, enter log10 of IC50 for CCOC(=O)[C@H]1CC(N2CCC3(CC2)COc2c3ccc3c2CN(C2CCC(=O)NC2=O)C3=O)CCN1C1CC2(CCN(c3ccc([C@@H]4c5ccc(O)cc5CC[C@@H]4c4ccccc4)cc3)CC2)C1 (some centres unmarked) [A113] here
Response: 0.66

Query: Provide measured log10 of IC50 on T-47D cells for O=C1CCC(N2Cc3c(ccc4c3OCC43CCN(C4CC5(CCN(c6ccc([C@@H]7c8ccc(O)cc8CC[C@@H]7c7ccccc7)cc6)CC5)C4)CC3)C2=O)C(=O)N1 (some centres unmarked) [L16] please.
Response: 0.85

Query: State the measured log10 of IC50 (T-47D cells) of C[C@@H]1Cc2c(ccc3[nH]ncc23)C(c2ccc(N3CCC(N4CC[C@@H](N5CCC6(CC5)COc5c6ccc6c5CN(C5CCC(=O)NC5=O)C6=O)[C@@H](F)C4)CC3)cn2)N1CC(F)(F)F (some centres unmarked) [H57]
Response: 1.43

Query: State recorded log10 of IC50 with T-47D cells, entry O=C1CCC(N2Cc3cc4c(cc3C2=O)OC2(CC4)CCN(C3CC4(CCN(c5ccc([C@@H]6c7ccc(O)cc7CC[C@@H]6c6ccccc6)cc5)CC4)C3)CC2)C(=O)N1 (some centres unmarked) [M17] , no comment.
Response: 0.90

Query: Under T-47D cells, report log10 of IC50 for C[C@@H]1Cc2cc(O)ccc2[C@@H](c2c(F)cc(N3CC4(CCC(N5CCC6(CC5)COc5c6ccc6c5CN(C5CCC(=O)NC5=O)C6=O)CC4)C3)cc2F)N1CC(F)(F)F (some centres unmarked) [I4]
Response: 1.10

###

Tested on: T-47D cells
Assay: Inhibition of cell proliferation in T-47D cells (CCK-8, 6 days)
Type: cell-based
Settings: 6 days of treatment, Table 3
measured.endpoint: pIC50
Interpret pIC50 as the negative base-10 log of the concentration measured in mol/L.

Worked set:
[[record]]
molecule = "O=C1CCC(N2Cc3cc4c(cc3C2=O)OC2(CC4)CN(CC3CCN(c4ccc([C@@H]5c6ccc(O)cc6CC[C@@H]5c5ccccc5)cc4)CC3)C2)C(=O)N1 (stereo partly drawn)"
measured_endpoint = "pIC50"
measured_result = 6.70

[[record]]
molecule = "C[C@H]1CN(C2CC3(CCN(c4ccc([C@@H]5c6ccc(O)cc6CC[C@@H]5c5ccccc5)cc4)CC3)C2)CC[C@H]1N1CCC2(CC1)COc1c2ccc2c1CN(C1CCC(=O)NC1=O)C2=O (stereo partly drawn)"
measured_endpoint = "pIC50"
measured_result = 8.47

[[record]]
molecule = "O=C1CCC(N2Cc3c(ccc4c3OCC43CCN(C4CCN(C(=O)C5(F)CCN(c6ccc([C@@H]7c8ccc(O)cc8CC[C@@H]7c7ccccc7)cc6)CC5)CC4)CC3)C2=O)C(=O)N1 (stereo partly drawn)"
measured_endpoint = "pIC50"
measured_result = 8.67

[[record]]
molecule = "O=C1CCC(N2Cc3c(ccc4c3OCC43CCN(C4CC5(CCC6(CCN(c7ccc([C@@H]8c9ccc(O)cc9CC[C@@H]8c8ccccc8)cc7)CC6)CC5)C4)CC3)C2=O)C(=O)N1 (stereo partly drawn)"
measured_endpoint = "pIC50"
measured_result = 7.99


Query: Item CC(C(=O)N1CCC2(CC1)COc1c2ccc2c1CN(C1CCC(=O)NC1=O)C2=O)N1CCC2(CCN(c3ccc([C@@H]4c5ccc(O)cc5CC[C@@H]4c4ccccc4)cc3)CC2)C1 (stereo partly drawn) : provide pIC50
Response: 8.93

Query: Supply recorded pIC50 for O=C1CCC(N2C(=O)c3cc4c(cc3C2=O)OC2(CC4)CN(CC3CC4(CCN(c5ccc([C@@H]6c7ccc(O)cc7CC[C@@H]6c6ccccc6)cc5)CC4)C3)C2)C(=O)N1 (stereo partly drawn) here.
Response: 7.26
